self-splicing fitness (ln): recorded values
test: self-splicing fitness, log relative to wild type (ln ratio); higher = more splicing; Tetrahymena group I intron in knt gene, E. coli kanamycin selection, DiMSum; sequences stand for … in CUCUCU…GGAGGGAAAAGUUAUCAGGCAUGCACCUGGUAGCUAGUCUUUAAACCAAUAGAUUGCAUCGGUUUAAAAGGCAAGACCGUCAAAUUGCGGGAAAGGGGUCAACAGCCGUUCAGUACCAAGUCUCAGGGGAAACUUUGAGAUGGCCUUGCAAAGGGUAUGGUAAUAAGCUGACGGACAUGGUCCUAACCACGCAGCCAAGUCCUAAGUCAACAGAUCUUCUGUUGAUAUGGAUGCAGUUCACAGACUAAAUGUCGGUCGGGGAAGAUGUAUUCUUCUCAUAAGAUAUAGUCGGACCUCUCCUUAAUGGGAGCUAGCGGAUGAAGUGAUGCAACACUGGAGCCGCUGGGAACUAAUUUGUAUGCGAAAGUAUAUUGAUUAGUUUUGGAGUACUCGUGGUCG; details: 37 °C;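 also: selection with 25 µg/mL kanamycin versus none on LB agar overnight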

chainSequence | self-splicing fitness (ln)
AAUAAGCAAUAUUACGUCGG | -1.75
AGACAGCAAUAUUACGGAAG | -1.94
AGAUAGCAAUAUUACGUCCG | -0.122
CCCGAGCAAUAUUACGAUCU | -2.68
AUCAAGCAAUAUUACGAAUU | -1.21
CACAAGCAAUAUUACGCACC | -2.4
UAAUAGCAAUAUUACGGAAA | -2.44
UGCUAGCAAUAUUACGCUGA | -1.18
UGUCAGCAAUAUUACGUCCA | -0.505
GCUGAGCAAUAUUACGCGGG | -1.19
CACAAGCAAUAUUACGGCAA | -1.55
UGUAAGCAAUAUUACGUAUU | -0.873
AUACAGCAAUAUUACGGCCA | -0.783
CUCAAGCAAUAUUACGUGCC | -2.29
UAUGAGCAAUAUUACGCCAU | -2.59
CGUAAGCAAUAUUACGUGUU | -3.63

---

self-splicing fitness (ln): recorded values
assay: self-splicing fitness, log relative to wild type (ln ratio); higher = more splicing; Tetrahymena group I intron in knt gene, E. coli kanamycin selection, DiMSum; sequences stand for … in CUCUCU…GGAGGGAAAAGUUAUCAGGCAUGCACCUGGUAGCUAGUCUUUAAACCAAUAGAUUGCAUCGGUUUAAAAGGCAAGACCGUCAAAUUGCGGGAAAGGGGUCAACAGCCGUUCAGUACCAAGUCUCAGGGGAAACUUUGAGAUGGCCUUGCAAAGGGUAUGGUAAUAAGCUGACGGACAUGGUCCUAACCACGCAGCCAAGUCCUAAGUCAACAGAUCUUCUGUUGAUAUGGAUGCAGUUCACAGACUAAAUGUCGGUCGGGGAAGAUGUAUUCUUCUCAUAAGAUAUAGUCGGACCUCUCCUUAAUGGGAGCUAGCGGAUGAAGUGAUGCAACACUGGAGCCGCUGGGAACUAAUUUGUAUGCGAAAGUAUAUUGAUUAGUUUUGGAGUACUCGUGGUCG; settings: 37 °C
assayReadout: self-splicing fitness (ln)

chainSequence | assayReadout | readoutValue
CUGAAGCAAUAUUACGCUUC | self-splicing fitness (ln) | -2.56
GCCCAGCAAUAUUACGAAAA | self-splicing fitness (ln) | -1.87
ACCAAGCAAUAUUACGGAUC | self-splicing fitness (ln) | -1.28
AACCAGCAAUAUUACGUUUA | self-splicing fitness (ln) | -0.649
GUGAAGCAAUAUUACGGAAA | self-splicing fitness (ln) | -0.16
UGUGAGCAAUAUUACGAAAU | self-splicing fitness (ln) | -3.22
AAAGAGCAAUAUUACGAGUG | self-splicing fitness (ln) | -2.38
AUGUAGCAAUAUUACGAUAC | self-splicing fitness (ln) | -1.82
UUUCAGCAAUAUUACGUACC | self-splicing fitness (ln) | -2.14
GCGUAGCAAUAUUACGGAUC | self-splicing fitness (ln) | 0.215
CAUUAGCAAUAUUACGCCUA | self-splicing fitness (ln) | -1.73
CCGGAGCAAUAUUACGUUAU | self-splicing fitness (ln) | -2.01
UGUAAGCAAUAUUACGUUCU | self-splicing fitness (ln) | -0.0225
CCGGAGCAAUAUUACGAAGG | self-splicing fitness (ln) | -2.28
CGAGAGCAAUAUUACGCUGA | self-splicing fitness (ln) | -0.634
GUGAAGCAAUAUUACGGCCA | self-splicing fitness (ln) | 0.468

// provenance: the supplement of paper PMC7877785
